Target: T1, NT-4 (neurotrophin-4) (Homo sapiens, UniProt P34130 P34130:81-210)
T1 sequence: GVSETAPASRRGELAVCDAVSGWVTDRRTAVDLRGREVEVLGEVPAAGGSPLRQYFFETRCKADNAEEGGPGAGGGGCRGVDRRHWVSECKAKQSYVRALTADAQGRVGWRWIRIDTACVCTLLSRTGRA
Assay: cell_activity; TF-1
Details: tags: R&D Systems; chain copies: 2
value_type: pIC50
In simple prose, pIC50 is minus the logarithm base ten of a concentration in moles per litre.

Look over these answered cases.
{"columns": ["binder", "pIC50"],
 "data": [
  ["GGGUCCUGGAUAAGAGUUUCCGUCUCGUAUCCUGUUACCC (ssRNA, as 82(1) except 2'-OMe U30) [SEQ ID NO: 82(11)]", 8.47],
  ["GGGUCCUGUGGAAGAGUUUCCGUCUCGUCCACUGUUACCC (ssRNA, as 89(2) plus 2'-OMe U9,G10,G11,C29,C30) [SEQ ID NO: 89(4)]", 6.57]
]}

**Query** Please indicate pIC50 recorded for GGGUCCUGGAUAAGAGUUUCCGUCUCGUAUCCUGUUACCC (ssRNA, as 82(1) except 2'-OMe U35) [SEQ ID NO: 82(15)]
**Result** 8.08

**Query** Please indicate pIC50 recorded for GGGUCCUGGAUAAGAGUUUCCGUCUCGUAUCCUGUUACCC (ssRNA, as 82(1) except 2'-OMe U23) [SEQ ID NO: 82(7)]
**Result** 8.43
